- test: Plasma exposure and PK of compound 63 in mouse plasma (HPLC-MS/MS)
- Assay type: in vivo
- conditionInfo: BALB/c, mouse, plasma, po, 25 mg/kg, 25 mg/kg PO QD x 5, time 0.5 h, read-out: Sample concentration, mean
parameter: concentration at 0.5 h
Please append the unit to your numeric answer.

Which concentration at 0.5 h is listed for Cc1ccccc1CN(CCCOc1ccc(C(F)(F)F)cc1)Cc1cccnc1 [compound 63] ?
271 ng/mL

----------
- test: Plasma exposure and PK of compound 63 in mouse plasma (HPLC-MS/MS)
- Format: in vivo
- conditionInfo: BALB/c, dose PO 25 mg/kg
parameter: AUC(0-inf)

So what's the measured AUC(0-inf) for this one? Cc1ccccc1CN(CCCOc1ccc(C(F)(F)F)cc1)Cc1cccnc1
622 ng·h/mL

----------
- test: Plasma exposure and PK of compound 63 in mouse plasma (HPLC-MS/MS)
- Format: in vivo
- conditionInfo: BALB/c, mouse, plasma, po, 25 mg/kg, 25 mg/kg PO QD x 5, time 2 h, read-out: Sample concentration, mean
parameter: concentration at 2 h
A complete answer gives the number followed by the unit.

What value of concentration at 2 h has been recorded for this entry: Cc1ccccc1CN(CCCOc1ccc(C(F)(F)F)cc1)Cc1cccnc1
0.028 µg/mL

----------
- test: Plasma exposure and PK of compound 63 in mouse plasma (HPLC-MS/MS)
- Format: in vivo
- conditionInfo: BALB/c, mouse, plasma, po, 25 mg/kg, 25 mg/kg PO QD x 5, time 1 h, read-out: Sample concentration, individual animals
parameter: concentration at 1 h (ng/mL)
Report the figure in ng/mL without appending any unit label.

Requested read-out: concentration at 1 h. Entry: Cc1ccccc1CN(CCCOc1ccc(C(F)(F)F)cc1)Cc1cccnc1
184

----------
- test: Plasma exposure and PK of compound 63 in mouse plasma (HPLC-MS/MS)
- Type: in vivo
- conditionInfo: BALB/c, dose PO 25 mg/kg
parameter: Cmax (ng/mL)
Expressed in ng/mL, but write only the number.

Please look up its Cmax: Cc1ccccc1CN(CCCOc1ccc(C(F)(F)F)cc1)Cc1cccnc1
271
